// data source = ChEMBL document CHEMBL5724801

Test system: U2OS
Assay: Multiplex assay against U2OS
Type: toxicity, cell-based
Details: human, 48 h, 1 µM, compound concentration 1 uM
Kindly supply the reported Population Normal (%) values for the records listed here.
Kindly provide the numeric value in % only, without the unit symbol.

# input Using the record for C[C@H](C[C@H](N)C(=O)O)C(=O)O [2S,4R-4-METHYLGLUTAMATE] , report its Population Normal (%).
# output 100

# input Using the record for `CC(C)(O)c1cnc(N2C[C@@]3(CCC[C@](C)(Cn4cnc5ccc(C#N)cc54)C3)OC2=O)cn1` , report its Population Normal (%).
# output 100

# input Using the record for `Cc1ccc(-c2ccc(F)cc2COc2ccc(CCC(=O)O)cc2)cc1` , report its Population Normal (%).
# output 97

# input Using the record for CCCCCC(O)/C=C/[C@H]1C(=O)CC(O)C1C/C=C\CCCC(=O)O (some centres undefined) , report its Population Normal (%).
# output 97

# input Using the record for `COCCNc1cc(NC(=O)N2CCCc3cc(CN4CCN(C)CC4=O)c(C=O)nc32)ncc1C#N` , report its Population Normal (%).
# output 100

# input Using the record for O=C1CSC(=O)N1C(CCc1ccncc1)COc1ccc(-c2cccc([N+](=O)[O-])c2)cc1 (centres undefined) , report its Population Normal (%).
# output 100

# input Using the record for CN(C)C/C=C/C(=O)Nc1ccc(C(=O)N2CCCC(Nc3ncc(Cl)c(-c4c[nH]c5ccccc45)n3)C2)cc1 (centres undefined) , report its Population Normal (%).
# output 96

# input Using the record for `COc1ccc2[nH]c(I)c(CCNC(C)=O)c2c1` , report its Population Normal (%).
# output 98

# input Using the record for `COc1c(Nc2ccc(S(C)(=O)=O)nc2C)ncnc1OC1CCN(C(=O)OC(C)C)CC1` , report its Population Normal (%).
# output 97
